From: ChEMBL document CHEMBL5053521

- Tested System: Histamine H2 receptor (Homo sapiens, UniProt P25021)
- Sequence (P25021 whole entry): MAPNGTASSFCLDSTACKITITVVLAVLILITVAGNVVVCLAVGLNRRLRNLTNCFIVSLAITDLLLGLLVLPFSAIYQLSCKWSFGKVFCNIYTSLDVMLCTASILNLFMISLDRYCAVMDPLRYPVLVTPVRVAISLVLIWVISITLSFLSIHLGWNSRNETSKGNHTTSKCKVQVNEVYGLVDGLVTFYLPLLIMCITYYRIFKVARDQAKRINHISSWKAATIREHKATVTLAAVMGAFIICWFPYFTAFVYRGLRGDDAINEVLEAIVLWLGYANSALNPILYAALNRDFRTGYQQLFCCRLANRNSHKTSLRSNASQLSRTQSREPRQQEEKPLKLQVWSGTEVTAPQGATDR
- Method Description: Agonist activity at human H2 receptor expressed in HEK293T-ARRB2 cells assessed as stimulation of beta-arrestin 2 recruitment
- Assay type: functional, cell-based
Hi there, I'd appreciate the recorded EC50 for every entry that follows.
Answers are plain numbers, in nM.

Below are worked cases with known answers.
- Cc1nc(N)sc1CCCN/C(N)=N/C(=O)NCCCCCCNC(=O)CCCCCN1/C(=C/C=C/C=C/C2=[N+](C)c3ccccc3C2(C)C)c2ccccc2C1(C)C: 191
- CC1(C)C(/C=C/C=C/C=C2\c3ccccc3C(C)(C)N2CCCCCC(=O)NCCCCCCCCNC(=O)/N=C(\N)NCCCc2c[nH]cn2)=[N+](CCCCS(=O)(=O)[O-])c2ccccc21: 115
- CC1(C)C(/C=C/C=C/C=C2\c3ccccc3C(C)(C)N2CCCCCC(=O)NCCCCCCCCNC(=O)/N=C(\N)NCCCc2nnc(N)s2)=[N+](CCCCS(=O)(=O)[O-])c2ccccc21: 64.6

API: the following record is the query input.
The recorded EC50 for entry Cc1nc(N)sc1CCCN/C(N)=N/C(=O)NCCCCCCCCNC(=O)CCCCCN1/C(=C/C=C/C=C/C2=[N+](CCCCS(=O)(=O)[O-])c3ccccc3C2(C)C)c2ccccc2C1(C)C equals 129
